measurement_protocol: Colorimetric alkylation rate constant assay with TNB^2− as non-specific thiol
Format: physicochemical
test_conditions: Replicate 3, 1445 sec, [B]0=250; in µM
value_type: remaining [B]
Reply: number alone, nothing else.

compound | remaining [B]
C=CS(=O)(=O)Nc1cc2cc(C(=O)CCC(=O)O)sc2cc1OC [Compound E1] | 246.365
O=C(CCl)Nc1ccccc1C(=O)O | 245.313
O=C(CCl)N1CCOCC1 | 240.248
O=C(CCl)Nc1ccccc1 | 243.732
COc1cc2sc(C(=O)CCC(=O)O)cc2cc1NC(=O)CCl [Compound E2] | 241.041

# ---- query compound ----
So, O=C(CCl)Nc1ccc(F)cc1 ? Its remaining [B] was 243.568
